Where do the numbers come from? From patent US9113629B2.

Attribute: pest or weed control at 140 g/ha
tested on: Key Broadleaf Weed and Crop Species; assay: Post-emergent Test II herbicidal activity (Table 5); assay type: in vivo; settings: post-emergence, 336 h; BRSNN: oilseed-rape, canola (Brassica napus); application rate 140 g ai/ha; 14 days after application; read-out: Visual Growth Reduction (%) 14 Days After Application, BRSNN

Worked examples, 4 compounds total:
>>> value_observed("C#Cc1ccc(-c2nc(C(=O)OC)c(Cl)c(N)c2F)cc1F [Compound 133]")
"95 to 100%"
>>> value_observed("COC(=O)c1nc(-c2ccc(Cl)c(F)c2)c(F)c(N)c1Cl [Compound 216]")
"85 to 94%"
>>> value_observed("Nc1c(F)c(-c2ccc(Br)c(F)c2)nc(C(=O)O)c1Cl [Compound 21]")
"95 to 100%"
>>> value_observed("COc1c(N)nc(-c2ccc(I)cc2F)nc1C(=O)O [Compound 72]")
"85 to 94%"

-- ask Tell me pest or weed control at 140 g/ha reported for COC(=O)c1nc(-c2ccc(Br)cc2F)c(F)c(N)c1Cl [Compound 52]
-- reply 95 to 100%

====

test system: Key Grass and Sedge Weeds as well as Grass Crops; assay: Post-emergent Test II herbicidal activity (Table 6); assay type: in vivo; conditions: post-emergence, 336 h, SORVU: grain sorghum (Sorghum vulgare), application rate 70 g ai/ha, read-out: Visual Growth Reduction (%) 14 Days After Application, SORVU
Attribute: pest or weed control at 70 g/ha

Worked examples, 3 compounds total:
>>> value_observed("C#Cc1ccc(-c2nc(C(=O)OC)c(Cl)c(N)c2Cl)cc1")
"30 to 44%"
>>> value_observed("C=Cc1c(C(=O)O)nc(-c2ccc(C(F)(F)F)c(F)c2F)c(F)c1N")
"45 to 59%"
>>> value_observed("C#Cc1ccc(-c2nc(C(=O)OC)c(C=C)c(N)c2F)cc1")
"0 to 29%"

-- ask Tell me pest or weed control at 70 g/ha reported for C#Cc1ccc(-c2cc(N)c(Cl)c(C(=O)OC)n2)cc1
-- reply 75 to 84%

-- ask Tell me pest or weed control at 70 g/ha reported for COC(=O)c1nc(-c2cc(F)c(C(F)F)cc2F)cc(N)c1Cl
-- reply 60 to 74%

====

system: Key Grass and Sedge Weeds as well as Grass Crops; assay: Post-emergent Test II herbicidal activity (Table 6); type: in vivo; conditions: post-emergence, 336 h, SORVU: grain sorghum (Sorghum vulgare), 140 g ai/ha, read-out: Visual Growth Reduction (%) 14 Days After Application, SORVU
reported-metric: pest or weed control at 140 g/ha

Worked examples, 4 compounds total:
>>> value_observed("N#Cc1ccc(-c2nc(C(=O)O)c(Cl)c(N)c2F)cc1F [Compound 156]")
"60 to 74%"
>>> value_observed("Nc1cc(-c2ccc(Br)c(F)c2F)nc(C(=O)O)c1Cl [Compound 91]")
"75 to 84%"
>>> value_observed("Nc1c(F)c(-c2ccc(Br)c(F)c2)nc(C(=O)O)c1Cl [Compound 21]")
"95 to 100%"
>>> value_observed("COc1c(N)nc(-c2ccc(Br)cc2)nc1C(=O)O [Compound 54]")
"75 to 84%"

Next, consider the following compound.
-- ask Tell me pest or weed control at 140 g/ha reported for Cc1ccc(-c2nc(C(=O)O)c(Cl)c(N)c2F)c(F)c1F [Compound 210]
-- reply 0 to 29%

====

test system: Key Broadleaf Weed and Crop Species; experiment: Post-emergent Test II herbicidal activity (Table 5); type: in vivo; conditions: post-emergence, 336 h; ABUTH: velvetleaf (Abutilon theophrasti); 140 g ai/ha; post-emergent; 14 days after application; read-out: Visual Growth Reduction (%) 14 Days After Application ABUTH
Attribute: pest or weed control at 140 g/ha

Worked examples, 6 compounds total:
>>> value_observed("Cc1c(-c2ccc(I)c(F)c2)nc(C(=O)O)c(Cl)c1N")
"85 to 94%"
>>> value_observed("C=Cc1c(N)nc(-c2ccc(C#N)cc2F)nc1C(=O)OC")
"0 to 29%"
>>> value_observed("Cc1c(-c2ccc(Br)cc2)nc(C(=O)O)c(Cl)c1N")
"95 to 100%"
>>> value_observed("COC(=O)c1nc(-c2ccc(Br)cc2F)cc(N)c1Cl")
"95 to 100%"
>>> value_observed("COC(=O)c1nc(-c2ccc(I)cc2F)cc(N)c1Cl")
"95 to 100%"
>>> value_observed("C#Cc1ccc(-c2nc(N)c(OC)c(C(=O)O)n2)cc1")
"0 to 29%"

-- ask Tell me pest or weed control at 140 g/ha reported for Nc1c(Cl)c(C(=O)O)nc(-c2ccc(Br)c(F)c2)c1Cl
-- reply 85 to 94%

-- ask Tell me pest or weed control at 140 g/ha reported for C#Cc1ccc(-c2nc(N)c(OC)c(C(=O)OC)n2)cc1
-- reply 0 to 29%

-- ask Tell me pest or weed control at 140 g/ha reported for C=Cc1c(C(=O)O)nc(-c2ccc(Br)cc2)c(F)c1N
-- reply 95 to 100%

-- ask Tell me pest or weed control at 140 g/ha reported for COc1c(N)nc(-c2ccc(C(F)(F)F)c(F)c2)nc1C(=O)O
-- reply 85 to 94%

====

system: Key Broadleaf Weed and Crop Species; test: Post-emergent Test II herbicidal activity (Table 5); assay type: in vivo; details: post-emergence, 336 h; VIOTR: wild pansy (Viola tricolor); application rate 140 g ai/ha; 14 days after application; read-out: Visual Growth Reduction (%) 14 Days After Application, VIOTR
Attribute: pest or weed control at 140 g/ha

Worked examples, 4 molecules total:
>>> value_observed("Nc1cc(-c2ccc(C(F)(F)F)c(F)c2F)nc(C(=O)O)c1Cl")
"60 to 74%"
>>> value_observed("COC(=O)c1nc(-c2ccc(I)cc2)c(F)c(N)c1Cl")
"95 to 100%"
>>> value_observed("Nc1c(F)c(-c2ccc(C(F)(F)F)c(F)c2)nc(C(=O)O)c1Cl")
"95 to 100%"
>>> value_observed("COC(=O)c1nc(-c2ccc(I)c(F)c2F)cc(N)c1Cl")
"95 to 100%"

-- ask Tell me pest or weed control at 140 g/ha reported for COC(=O)c1nc(-c2ccc(OC(F)F)c(F)c2F)c(F)c(N)c1Cl
-- reply 0 to 29%

====

Attribute: pest or weed control at 70 g/ha
test system: Key Broadleaf Weed and Crop Species; assay: Post-emergent Test II herbicidal activity (Table 5); format: in vivo; conditions: post-emergence, 336 h; ABUTH: velvetleaf (Abutilon theophrasti); 70 g ai/ha; post-emergent; 14 days after application; read-out: Visual Growth Reduction (%) 14 Days After Application ABUTH

>>> value_observed("C=Cc1c(C(=O)OC)nc(-c2ccc(Br)cc2)c(F)c1N")
"85 to 94%"

-- ask Print Key Broadleaf Weed and Crop Species pest or weed control at 70 g/ha for COC(=O)c1nc(-c2ccc(I)cc2)c(C)c(N)c1Cl .
-- reply 95 to 100%

-- ask Print Key Broadleaf Weed and Crop Species pest or weed control at 70 g/ha for COC(=O)c1nc(-c2cc(F)c(F)cc2F)c(F)c(N)c1Cl .
-- reply 95 to 100%

-- ask Print Key Broadleaf Weed and Crop Species pest or weed control at 70 g/ha for COC(=O)c1nc(-c2ccc(I)c(F)c2)c(Cl)c(N)c1Cl .
-- reply 85 to 94%

-- ask Print Key Broadleaf Weed and Crop Species pest or weed control at 70 g/ha for C=Cc1c(C(=O)OC)nc(-c2ccc(C#N)cc2)c(F)c1N .
-- reply 75 to 84%

-- ask Print Key Broadleaf Weed and Crop Species pest or weed control at 70 g/ha for COC(=O)c1nc(-c2ccc(C#N)c(F)c2)c(C)c(N)c1Cl .
-- reply 0 to 29%

-- ask Print Key Broadleaf Weed and Crop Species pest or weed control at 70 g/ha for C=Cc1c(N)nc(-c2ccc(C#N)cc2F)nc1C(=O)OC .
-- reply 0 to 29%

-- ask Print Key Broadleaf Weed and Crop Species pest or weed control at 70 g/ha for COC(=O)c1nc(-c2ccc(Br)c(F)c2)c(Cl)c(N)c1Cl .
-- reply 85 to 94%

-- ask Print Key Broadleaf Weed and Crop Species pest or weed control at 70 g/ha for COC(=O)c1nc(-c2cc(F)c(Br)cc2F)cc(N)c1Cl .
-- reply 95 to 100%

====

test system: KCHSC: kochia (Kochia scoparia); experiment: Post-emergent Test III, herbicidal activity in wheat and barley; assay type: in vivo; conditions: Table 9; dose for 50 percent growth reduction, probit analysis; 21 d
Attribute: GR50 KCHSC

-- ask Tell me GR50 KCHSC reported for Nc1c(Cl)c(C(=O)O)nc(-c2ccc(C(F)(F)F)c(F)c2)c1Cl
-- reply >140 g ai/ha
